- targetOrTestSystem: Glucose transporter (Leishmania mexicana) (UniProt O61059)
- experimentNotes: ST_JUDE_LEISH: Cytotoxicity at 2uM final concentration against transgenic Leishmania Mexicana promastigotes LmGT2 that are glucose transport deficient and complemented with the L. Mexicana glucose transporter 2. Activity is measured by DNA content using SYBR green in vitro
- Format: functional
measurementType: inhibition (%)
Quick note: give the figure in %, leave out the unit.

Q) // map CC(NC(C)(C)C)C(O)c1ccc(Cl)c(C(F)(F)F)c1 (stereo not given) to recorded inhibition (system: Glucose transporter (Leishmania mexicana) (UniProt O61059))
A) 1.11

Q) Cool, now `CC1=CC(=O)[C@@H](O)[C@]2(C)[C@H]3[C@@]4(O)OC[C@@]35[C@@H](C[C@@H]12)OC(=O)C[C@H]5[C@@H](C)[C@H]4O`
A) 0.79

Q) Another molecule to check: `Fc1ccc2[nH]cc(CCN3CCC(CNCc4ccccc4)CC3)c2c1`
A) 1.2

Q) Try this molecule next: O=C(NC1CCC(CN2CCC(c3c[nH]c4ccccc34)CC2)CC1)c1cc(-c2cccc(Cl)c2)n(-c2ccc(Cl)cc2Cl)n1 (stereo not given)
A) 0.47

Q) Do the same for `CC[C@H]1CN2CC[C@H]1C[C@H]2[C@H](O)c1ccnc2ccc(C#N)cc12` please
A) 2.19

Q) Next entry: `O=C(/C=C/c1ccc(Cl)c(Cl)c1)N1CCC(CN2CCC(c3c(-c4ccc(F)cc4)[nH]c4ccccc34)CC2)CC1`
A) -4.69

Q) Moving on to Cc1cc(C2CCCCN2C)ccc1-c1ccc(C(=O)N2CCc3cc4c(cc32)C2(CCN(C)CC2)CO4)cc1 (stereo not given)
A) 1.11

Q) Entry to check: `CCCCn1c(C)c(C(=O)OCC)c2cc(OC(C)=O)c(Br)cc21`
A) 3.29

Q) Let us now turn to Cc1ccc(CC(C)NCC(O)c2cccc([N+](=O)[O-])c2)cc1 (stereo not given)
A) 1.06

Q) // next record CC(C)N(C)C(=O)n1cnc(S(=O)(=O)C2CC3CCC2C3)n1 (stereo not given)
A) -0.84

Q) Another molecule to look at: Cc1[nH]c2ccccc2c1C1=CCN(CCCCC23CCCc4cccc(c42)NC3=O)CC1 (stereo not given)
A) 2.47

Q) Also, CC(Cc1ccc(OCCCCOc2ccccc2)cc1)NCCCN1CCOCC1 (stereo not given) please.
A) -0.25

Q) And the next one, Cc1ccccc1CNCC(O)c1cccc(C(F)(F)F)c1 (stereo not given) ?
A) -1.33

Q) Try this molecule next: O=C(/C=C/c1ccc([N+](=O)[O-])cc1)NC1CCC(CN2CCC(c3c[nH]c4ccccc34)CC2)CC1 (stereo not given)
A) 0.45

Q) Request: O=C(NC1CCC(CN2CCC(c3c[nH]c4ccccc34)CC2)CC1)c1cc(-c2ccccc2)c(C(F)(F)F)s1 (stereo not given)
A) 6.95
